- assay-system: Recombinant Cat D (Homo sapiens (Human))
- Sequence (P07339 65-412): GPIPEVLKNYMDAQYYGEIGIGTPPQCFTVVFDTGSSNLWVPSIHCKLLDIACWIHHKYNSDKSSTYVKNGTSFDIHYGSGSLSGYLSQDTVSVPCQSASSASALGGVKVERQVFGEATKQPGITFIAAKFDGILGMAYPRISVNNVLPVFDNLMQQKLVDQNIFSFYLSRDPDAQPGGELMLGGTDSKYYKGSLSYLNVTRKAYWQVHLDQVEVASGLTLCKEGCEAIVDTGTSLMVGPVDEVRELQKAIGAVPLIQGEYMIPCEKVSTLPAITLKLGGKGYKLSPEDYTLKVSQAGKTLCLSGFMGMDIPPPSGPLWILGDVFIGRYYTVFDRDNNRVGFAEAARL
- measurement-protocol: In vitro enzymatic Cathepsin D (Cat D) FRET assay
- Format: biochemical
- condition: Cathepsin D FRET enzyme assay; read-out: IC50 IP (μM) CatD

{"columns": ["compound", "limit-sign", "IC50 (µM)"],
 "data": [
  ["COc1cnc2c(Nc3cc(F)c(F)c([C@@]4(C)N=C(N)S[C@@]5(CO)C[C@H]54)c3)ncc(F)c2c1", "=", 1210],
  ["COc1cnc2c(Nc3cc(F)c(F)c([C@@]4(C)N=C(N)S[C@@]5(CF)C[C@H]54)c3)ncnc2c1", "=", 268],
  ["COc1cnc2c(Nc3ccc(F)c([C@@]4(CF)N=C(N)S[C@H]5CC54)c3)ncnc2c1 (stereo in doubt)", ">", 400],
  ["C#CCOc1cnc2c(Nc3cc(F)c(F)c([C@@]4(C)N=C(N)S[C@@]5(CO)C[C@H]54)c3)nccc2n1", ">", 133],
  ["NC1=N[C@](CF)(c2cc(NC(=O)c3ccc(Cl)cn3)ccc2F)[C@H]2C[C@@]2(CO)S1", "=", 95.6],
  ["NC1=N[C@](CF)(c2cc(Nc3nccc4cc(Cl)cnc34)ccc2F)[C@@H]2C[C@]2(CO)S1", ">", 400],
  ["C#CCOc1cnc(C(=O)Nc2cc(F)c(F)c([C@@]3(CF)N=C(N)S[C@H]4C[C@H]43)c2)c(C)n1", "=", 974]
]}

---

- Tested on: Aβ40 in conditioned medium of cells stably expressing Amyloid Precursor Protein (APP)
- measurement-protocol: In vitro BACE-1 cell-based assay (Aβ40 sandwich ELISA)
- condition: BACE1 cell-based assay; read-out: IC50 IP (μM) BACE1 cell
# IC50 values compiled below

{"columns": ["compound", "assay-system", "IC50 / µM"],
 "data": [
  ["C#CCOc1cnc(C(=O)Nc2cc(F)c(F)c([C@@]3(C)N=C(N)S[C@H]4C[C@H]43)c2)cn1", "Aβ40 in conditioned medium of cells stably expressing Amyloid Precursor Protein (APP)", 0.00062],
  ["NC1=N[C@](CF)(c2cc(NC(=O)c3ccc(Cl)cn3)cc(F)c2F)[C@@H]2C[C@@H]2S1 [Example 5]", "Aβ40 in conditioned medium of cells stably expressing Amyloid Precursor Protein (APP)", 0.0326],
  ["CC#CCOc1cnc(C(=O)Nc2cc(F)c(F)c([C@@]3(C)N=C(N)S[C@@]4(CO)C[C@H]43)c2)c(C)c1", "Aβ40 in conditioned medium of cells stably expressing Amyloid Precursor Protein (APP)", 0.00216],
  ["C[C@]1(c2cc(Nc3ncnc4cc(C#N)cnc34)ccc2F)N=C(N)S[C@@H]2[C@H]1C2(F)F", "Aβ40 in conditioned medium of cells stably expressing Amyloid Precursor Protein (APP)", 0.094],
  ["C#CCOc1cnc(C(=O)Nc2ccc(F)c([C@@]3(CF)N=C(N)S[C@@]4(CO)C[C@H]43)c2)c(C)n1", "Aβ40 in conditioned medium of cells stably expressing Amyloid Precursor Protein (APP)", 0.00271],
  ["N#Cc1cnc2c(Nc3cc(F)c(F)c([C@@]4(CF)N=C(N)S[C@]5(CO)C[C@@H]54)c3)nccc2c1", "Aβ40 in conditioned medium of cells stably expressing Amyloid Precursor Protein (APP)", 0.0225],
  ["COc1cnc2c(Nc3cc(F)c(F)c([C@@]4(C)N=C(N)S[C@@]5(CO)C[C@H]54)c3)nccc2c1", "Aβ40 in conditioned medium of cells stably expressing Amyloid Precursor Protein (APP)", 0.0198],
  ["COc1cnc2c(Nc3ccc(F)c([C@@]4(CF)N=C(N)S[C@H]5CC54)c3)ncnc2c1 (stereo in doubt)", "Aβ40 in conditioned medium of cells stably expressing Amyloid Precursor Protein (APP)", 0.0264],
  ["C#CCOc1cnc(C(=O)Nc2cc(F)c(F)c([C@@]3(CF)N=C(N)S[C@H]4C[C@H]43)c2)cn1", "Aβ40 in conditioned medium of cells stably expressing Amyloid Precursor Protein (APP)", 0.00064],
  ["Cc1cc(OC(F)F)cnc1C(=O)Nc1cc(F)c(F)c([C@@]2(C)N=C(N)S[C@H]3C[C@H]32)c1", "Aβ40 in conditioned medium of cells stably expressing Amyloid Precursor Protein (APP)", 0.00994],
  ["Cc1cc(OC(F)F)cnc1C(=O)Nc1cc(F)c(F)c([C@@]2(CF)N=C(N)S[C@H]3C[C@H]32)c1", "Aβ40 in conditioned medium of cells stably expressing Amyloid Precursor Protein (APP)", 0.0501],
  ["C[C@]1(c2cc(Nc3ncnc4cc(Cl)cnc34)cc(F)c2F)N=C(N)S[C@H]2C[C@H]21", "Aβ40 in conditioned medium of cells stably expressing Amyloid Precursor Protein (APP)", 0.0317],
  ["C#CCOc1cnc2c(Nc3cc(F)c(F)c([C@@]4(C)N=C(N)S[C@H]5C[C@H]54)c3)nccc2c1", "Aβ40 in conditioned medium of cells stably expressing Amyloid Precursor Protein (APP)", 0.0836],
  ["COc1cnc2c(Nc3cc(F)c(F)c([C@@]4(C)N=C(N)S[C@@]5(CO)C[C@H]54)c3)ncnc2c1", "Aβ40 in conditioned medium of cells stably expressing Amyloid Precursor Protein (APP)", 0.00306],
  ["COC[C@]12C[C@H]1[C@@](C)(c1cc(Nc3ncnc4cc(Cl)cnc34)cc(F)c1F)N=C(N)S2", "Aβ40 in conditioned medium of cells stably expressing Amyloid Precursor Protein (APP)", 0.00288],
  ["N#Cc1ccc(C(=O)Nc2cc(F)c(F)c([C@@]3(CF)N=C(N)S[C@H]4C[C@H]43)c2)nc1", "Aβ40 in conditioned medium of cells stably expressing Amyloid Precursor Protein (APP)", 0.0119],
  ["COc1cnc(C(=O)Nc2cc(F)c(F)c([C@@]3(C)N=C(N)S[C@H]4C[C@H]43)c2)cn1", "Aβ40 in conditioned medium of cells stably expressing Amyloid Precursor Protein (APP)", 0.00636],
  ["NC1=N[C@](CF)(c2cc(NC(=O)c3ccc(Cl)cn3)ccc2F)[C@@H]2C[C@]2(CF)S1", "Aβ40 in conditioned medium of cells stably expressing Amyloid Precursor Protein (APP)", 0.00596],
  ["Cc1cc(Cl)cnc1C(=O)Nc1cc(F)c(F)c([C@@]2(CF)N=C(N)S[C@H]3C[C@H]32)c1", "Aβ40 in conditioned medium of cells stably expressing Amyloid Precursor Protein (APP)", 0.0917],
  ["COc1cnc2c(Nc3cc(F)c(F)c([C@@]4(C)N=C(N)S[C@@]5(CO)C[C@H]54)c3)ncc(F)c2c1", "Aβ40 in conditioned medium of cells stably expressing Amyloid Precursor Protein (APP)", 0.0256],
  ["N#Cc1cnc2c(Nc3cc(F)c(F)c([C@@]4(CF)N=C(N)S[C@H]5C[C@H]54)c3)nccc2c1", "Aβ40 in conditioned medium of cells stably expressing Amyloid Precursor Protein (APP)", 0.0213],
  ["N#Cc1cnc2c(Nc3cc(F)c(F)c([C@@]4(CF)N=C(N)S[C@@]5(CO)C[C@H]54)c3)nccc2c1", "Aβ40 in conditioned medium of cells stably expressing Amyloid Precursor Protein (APP)", 0.0149],
  ["COc1cnc(C(=O)Nc2cc(F)c(F)c([C@@]3(CF)N=C(N)S[C@H]4C[C@H]43)c2)cn1", "Aβ40 in conditioned medium of cells stably expressing Amyloid Precursor Protein (APP)", 0.00908],
  ["Cc1cc(C#N)cnc1C(=O)Nc1cc(F)c(F)c([C@@]2(CF)N=C(N)S[C@@]3(CO)C[C@H]32)c1", "Aβ40 in conditioned medium of cells stably expressing Amyloid Precursor Protein (APP)", 0.0035],
  ["N#Cc1ccc(C(=O)Nc2ccc(F)c([C@@]3(CF)N=C(N)S[C@H]4C[C@H]43)c2)nc1", "Aβ40 in conditioned medium of cells stably expressing Amyloid Precursor Protein (APP)", 0.00437],
  ["N#Cc1cnc2c(Nc3ccc(F)c([C@@]4(CF)N=C(N)S[C@@]5(CF)C[C@H]54)c3)ncnc2c1", "Aβ40 in conditioned medium of cells stably expressing Amyloid Precursor Protein (APP)", 0.0312],
  ["C#CCOc1cnc(C(=O)Nc2ccc(F)c([C@@]3(C)N=C(N)S[C@@H]4[C@H]3C4(F)F)c2)c(C)n1", "Aβ40 in conditioned medium of cells stably expressing Amyloid Precursor Protein (APP)", 0.058],
  ["Cc1cc(C#N)cnc1C(=O)Nc1cc(F)c(F)c([C@@]2(C)N=C(N)S[C@H]3C[C@H]32)c1", "Aβ40 in conditioned medium of cells stably expressing Amyloid Precursor Protein (APP)", 0.00431],
  ["C#CCOc1cnc(C(=O)Nc2cc(F)c(F)c([C@@]3(CF)N=C(N)S[C@@]4(CO)C[C@H]43)c2)cn1", "Aβ40 in conditioned medium of cells stably expressing Amyloid Precursor Protein (APP)", 0.00092]
]}
